- Measured On: GST-TMEM106B (truncated, comprising amino acids 122-210 of SEQ ID NO:1) (Homo sapiens, UniProt Q9NUM4)
- Sequence (Q9NUM4 122-210): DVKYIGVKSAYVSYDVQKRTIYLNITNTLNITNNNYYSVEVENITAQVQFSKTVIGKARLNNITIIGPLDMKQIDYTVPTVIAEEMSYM
- Protocol Summary: Pre-mix epitope binning of anti-TMEM106B antibodies (Carterra / Lake Pharma)
- Format: binding
- Design: key: Bin 1: competes for binding to the same or overlapping TMEM106B region as the TM1, TM17, TM22, TM26, TM79, and/or TM82 antibodies; Bin 2: competes for binding to the same or overlapping TMEM106B region as the TM3, TM9, TM10, TM11, TM12, TM13, TM18, TM19, TM21, TM24, TM25, TM32, TM35, TM37, TM42, TM45, TM48, TM54, TM59, TM60, TM61, and/or TM76 antibodies; Bin 3: competes for binding to the same or overlapping TMEM106B region as the TM7, TM15, TM83, and/or TM84 antibodies; Bin 4: competes for binding to the same or overlapping TMEM106B region as the TMS, TM28, TM29, TM30, TM63, TM64, TM72, TM78, TM80, TM86, and/or TM88 antibodies; Bin 5: does not bind to a truncated TMEM106B comprising amino acids 122-210 of SEQ ID NO:1
- Experimental Parameters: competition for binding to truncated GST-TMEM106B (amino acids 122-210)
Endpoint Name: epitope bin

TM-25: anti-TMEM106B monoclonal antibody; CDR-H1-3 SEQ ID NO: 10, 57, 100; CDR-L1-3 SEQ ID NO: 137, 168, 205 (antibody, V domains shown) VH: EVQLVESGGDLVKPGGSLRLSCAASGFTFSGYGMSWIRQTPDKRLEWVATISSGGRYTVYPDSVKGRFTMSRDNVKNTLYLQMSSLKSEDTALYYCARDNFYSYAMDYWGLGTSVTVSA VL: DIVMTQAAFSNPVTLGTSASISCRSSKSLLHSNGITYLFWYLQKPGQSPQLLIYQMSNLASGVPDRFSSSGSGTDFTLRISRVEAEDVGVYYCAQNLELWTFGGGTKLEIK = Bin 2
